System: Franklinella occidentalis
Assay Overview: Insecticidal activity against Franklinella occidentalis nymphs, sprayed bean leaves
Type: in vivo
Experimental Conditions: 10 mg/L
Measured Endpoint: Mortality rate (%, 3 days after the administration) 10 mg/L (%)
Field format: number, assumed %, no unit text.

Solved cases (10 shown):
[
  {
    "Molecule": "CN(C(=O)c1ccc(F)nc1)c1cccc(C(=O)Nc2c(Br)cc(C(F)(C(F)(F)F)C(F)(F)F)cc2C(F)(F)F)c1F [KC7, reference compound]",
    "Value Unit": "%",
    "Obs Value": 53.33
  },
  {
    "Molecule": "CN(C(=O)c1ccc(F)nc1)c1cccc(C(=O)Nc2c(I)cc(C(F)(C(F)(F)F)C(F)(F)F)cc2C(F)(F)F)c1F [KC8, reference compound]",
    "Value Unit": "%",
    "Obs Value": 53.33
  },
  {
    "Molecule": "C=CCN(C(=O)c1ccc(F)nc1)c1cccc(C(=O)Nc2c(Br)cc(C(F)(C(F)(F)F)C(F)(F)F)cc2C(F)(F)F)c1F",
    "Value Unit": "%",
    "Obs Value": 100
  },
  {
    "Molecule": "C#CCN(C(=O)c1ccc(F)nc1)c1cccc(C(=O)Nc2c(I)cc(C(F)(C(F)(F)F)C(F)(F)F)cc2C(F)(F)F)c1F",
    "Value Unit": "%",
    "Obs Value": 100
  },
  {
    "Molecule": "CN(C(=O)c1ccc(F)cc1)c1cccc(C(=O)Nc2c(Br)cc(C(F)(C(F)(F)F)C(F)(F)F)cc2C(F)(F)F)c1F [KC4, reference compound]",
    "Value Unit": "%",
    "Obs Value": 40.00
  },
  {
    "Molecule": "C#CCN(C(=O)c1ccc(F)cc1)c1cccc(C(=O)Nc2c(Br)cc(C(F)(C(F)(F)F)C(F)(F)F)cc2C(F)(F)F)c1F",
    "Value Unit": "%",
    "Obs Value": 100
  },
  {
    "Molecule": "C#CCN(C(=O)c1ccccc1)c1cccc(C(=O)Nc2c(Br)cc(C(F)(C(F)(F)F)C(F)(F)F)cc2C(F)(F)F)c1F",
    "Value Unit": "%",
    "Obs Value": 97.78
  },
  {
    "Molecule": "C=CCN(C(=O)c1ccc(F)cc1)c1cccc(C(=O)Nc2c(Br)cc(C(F)(C(F)(F)F)C(F)(F)F)cc2C(F)(F)F)c1F",
    "Value Unit": "%",
    "Obs Value": 91.11
  },
  {
    "Molecule": "C=CCN(C(=O)c1ccc(F)nc1)c1cccc(C(=O)Nc2c(I)cc(C(F)(C(F)(F)F)C(F)(F)F)cc2C(F)(F)F)c1F",
    "Value Unit": "%",
    "Obs Value": 100
  },
  {
    "Molecule": "O=C(Nc1cccc(C(=O)Nc2c(I)cc(C(F)(C(F)(F)F)C(F)(F)F)cc2C(F)(F)F)c1F)c1ccc(F)nc1 [KC6, reference compound]",
    "Value Unit": "%",
    "Obs Value": 57.78
  }
]

GET /values?readout=Mortality rate (%, 3 days after the administration) 10 mg/L&item= CN(C(=O)c1ccccc1)c1cccc(C(=O)Nc2c(Br)cc(C(F)(C(F)(F)F)C(F)(F)F)cc2C(F)(F)F)c1F [KC3, broflanilide, reference compound]
31.11

GET /values?readout=Mortality rate (%, 3 days after the administration) 10 mg/L&item= C=CCN(C(=O)c1ccc(F)cc1)c1cccc(C(=O)Nc2c(I)cc(C(F)(C(F)(F)F)C(F)(F)F)cc2C(F)(F)F)c1F
88.89

The reported measurements were obtained from patent US20240199552A1.
